For each of the compounds below, state its IC50.
Tested target: Recombinant STAT3 protein (STAT3 (G127-I722)) (Homo sapiens)
Construct: Recombinant STAT3 protein (STAT3 (G127-I722))
Sequence (P40763 127-722): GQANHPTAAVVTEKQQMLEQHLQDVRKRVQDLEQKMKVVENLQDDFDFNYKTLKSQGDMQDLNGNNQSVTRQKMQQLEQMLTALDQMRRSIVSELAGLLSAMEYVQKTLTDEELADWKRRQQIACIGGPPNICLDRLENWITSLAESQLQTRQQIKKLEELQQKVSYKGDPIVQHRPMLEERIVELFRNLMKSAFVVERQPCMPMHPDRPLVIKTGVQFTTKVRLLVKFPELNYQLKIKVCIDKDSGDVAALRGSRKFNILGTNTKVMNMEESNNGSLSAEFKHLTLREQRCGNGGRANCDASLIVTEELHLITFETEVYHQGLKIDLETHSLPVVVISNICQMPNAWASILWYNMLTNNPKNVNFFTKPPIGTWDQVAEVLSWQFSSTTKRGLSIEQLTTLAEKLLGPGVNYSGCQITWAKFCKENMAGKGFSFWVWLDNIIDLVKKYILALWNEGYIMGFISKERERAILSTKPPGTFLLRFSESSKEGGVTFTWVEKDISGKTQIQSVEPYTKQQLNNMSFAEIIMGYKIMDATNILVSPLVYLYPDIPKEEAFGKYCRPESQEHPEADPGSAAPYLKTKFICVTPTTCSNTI
Protocol: STAT3 Fluorescence Polarization (FP) Assay
Assay type: binding
Condition info: STAT3 (G127-I722) 25 nM, probe 5-FAM-GpYLPQTV-NH2 2 nM, 45-minute incubation; read-out: STAT3 (FP assay IC50 class)

Fill in IC50 for each of the 2 compounds listed.
1. O=C(N[C@H]1CCCC[C@H]2CC[C@@H](C(=O)N3CCC(c4cccnc4)C3)N2C1=O)c1ccc2ccc(C(F)(F)P(=O)(O)O)cc2c1 (stereo partly drawn)
2. COC1(c2nccn2C)CN(C(=O)[C@@H]2CC[C@@H]3CCC4(CC4)C[C@H](NC(=O)c4cc5cc(C(F)(F)P(=O)(O)O)ccc5s4)C(=O)N32)C1

100 to 1000 nM
100 to 1000 nM

Dear colleague, could you send me IC50 for each of the items below? Thanks.
1. CCC[C@@H]1CC[C@H](NC(=O)c2cc3cc(C(F)P(=O)(O)O)ccc3s2)C(=O)N2[C@H](CC[C@H]2C(=O)N2C[C@@H](C#N)[C@H](c3ccccc3)C2)C1 (single isomer, unassigned)
2. CC[C@@H]1CC[C@H](NC(=O)c2cc3cc([C@H](F)P(=O)(O)O)ccc3s2)C(=O)N2[C@H](CC[C@H]2C(=O)N2CC(c3cnccc3N3CCC3)C2)C1

["1000 to 10000 nM", "< 100 nM"]

// each compound listed below needs its IC50
1. COC1(c2cnccc2C)CN(C(=O)[C@@H]2CC[C@@H]3CCC[C@H](NC(=O)c4cc5cc(C(F)(F)P(=O)(O)O)ccc5s4)C(=O)N32)C1
2. N#CC1(c2ccccn2)CN(C(=O)[C@@H]2CC[C@@H]3CCC[C@H](NC(=O)c4cc5cc(C(F)(F)P(=O)(O)O)ccc5s4)C(=O)N32)C1
3. N#C[C@H]1CN(C(=O)[C@@H]2CC[C@@H]3CCCC[C@H](NC(=O)c4cc5cc(C(F)(F)P(=O)(O)O)ccc5s4)C(=O)N32)C[C@@H]1c1cc[nH]c(=O)c1 (single isomer, unassigned)
4. O=C(N[C@H]1CCCC[C@H]2CC[C@@H](C(=O)N3CCC(c4cccnc4)C3)N2C1=O)c1cc2cc(CP(=O)(O)O)ccc2s1 (stereo partly drawn)
5. CC(C)c1ccncc1C1CN(C(=O)[C@@H]2CC[C@@H]3CCC[C@H](NC(=O)c4cc5cc(C(F)P(=O)(O)O)ccc5s4)C(=O)N32)C1 (stereo partly drawn)
6. N#Cc1cccc(C2CN(C(=O)[C@@H]3CC[C@@H]4CCC[C@H](NC(=O)c5cc6cc(CP(=O)(O)O)ccc6s5)C(=O)N43)C2)n1
7. N#C[C@@H]1[C@@H](c2ccccc2)CN(C(=O)[C@@H]2CC[C@@H]3CCCC[C@H](NC(=O)c4ccc5ccc(C(F)P(=O)(O)O)cc5c4)C(=O)N32)C12CC2 (single isomer, unassigned)

1: 100 to 1000 nM; 2: < 100 nM; 3: 100 to 1000 nM; 4: 1000 to 10000 nM; 5: < 100 nM; 6: 100 to 1000 nM; 7: 1000 to 10000 nM

====

Assign pIC50 to each entry below.
Tested target: pY641-STAT6 in PBMC (Homo sapiens, UniProt P42226)
Construct: Cryopreserved Peripheral Blood Mononuclear Cells (PBMC) are from AllCells; host or cells: cryopreserved PBMC
Protocol: MSD-pSTAT-PBMC Assay (pSTAT6, IL-4 stimulated)
Assay type: cell-based
Condition info: pSTAT6, PBMC, compound 3 hrs, then 1 ng/mL IL-4 for 10 min; Table 1114
pIC50: −log10 of the molar value.

CC(C)(C)C(=O)SCCOP(=O)(Oc1ccc(C#N)cc1)C(F)(F)c1ccc2sc(C(=O)N[C@H]3CCCC[C@H]4CC[C@@H](C(=O)N5C[C@@H](C#N)[C@H](c6ccccc6)C5)N4C3=O)cc2c1 (single isomer, unassigned): 6.00 to 7.00
CC(C)OC(=O)[C@H](C)NP(=O)(Cc1ccc2sc(C(=O)N[C@H]3CCC[C@H]4CC[C@@H](C(=O)N5CC(c6cccnc6)C5)N4C3=O)cc2c1)Oc1ccccc1 (stereo partly drawn): < 5.52
CC(C)OC(=O)[C@H](C)NP(=O)(Cc1ccc2sc(C(=O)N[C@H]3CCCC[C@H]4CC[C@@H](C(=O)N5C[C@H](c6cc[nH]c(=O)c6)[C@@H](C#N)C5)N4C3=O)cc2c1)Oc1ccccc1 (single isomer, unassigned): < 5.52
CC(C)(CO)C(=O)SCCOP(=O)(Oc1ccccc1)C(F)(F)c1ccc2sc(C(=O)N[C@H]3CCC[C@H]4CC[C@@H](C(=O)N5CC(c6cccnc6)C5)N4C3=O)cc2c1 (stereo partly drawn): < 5.52
CC(C)OC(=O)[C@H](C)NP(=O)(Oc1ccccc1)C(F)c1ccc2sc(C(=O)N[C@H]3CCCC[C@H]4CC[C@@H](C(=O)N5C[C@H](c6cc[nH]c(=O)c6)[C@@H](C#N)C5)N4C3=O)cc2c1 (single isomer, unassigned): < 5.52
CCCC(=O)SCCOP(=O)(Oc1cccc2ccccc12)C(F)(F)c1ccc2sc(C(=O)N[C@H]3CCC[C@H]4CC[C@@H](C(=O)N5CC(c6cccnc6)C5)N4C3=O)cc2c1 (stereo partly drawn): 5.52 to 6.00

I have 3 molecules here; please give me pIC50 for each one.
1. CCCC(=O)SCCOP(=O)(Oc1ccccc1)C(F)(F)c1ccc2sc(C(=O)N[C@H]3CCCC[C@H]4CC[C@@H](C(=O)N5C[C@H](c6ccccc6)[C@@H](C#N)C5)N4C3=O)cc2c1 (single isomer, unassigned)
2. CCCC(=O)SCCOP(=O)(Oc1ccccc1)C(F)(F)c1ccc2sc(C(=O)N[C@H]3CCC[C@H]4CC[C@@H](C(=O)N5CC(c6cccnc6)C5)N4C3=O)cc2c1 (stereo partly drawn)
3. CC(C)(C)C(=O)SCCOP(=O)(Oc1cccc(C#N)c1)C(F)(F)c1ccc2sc(C(=O)N[C@H]3CCCC[C@H]4CC[C@@H](C(=O)N5C[C@@H](C#N)[C@H](c6ccccc6)C5)N4C3=O)cc2c1 (single isomer, unassigned)

6.00 to 7.00
5.52 to 6.00
6.00 to 7.00

====

Tested target: Recombinant STAT6 protein (STAT6 (W123-T658)) (Homo sapiens)
Construct: Recombinant STAT6 protein (STAT6 (W123-T658))
Sequence (P42226 123-658): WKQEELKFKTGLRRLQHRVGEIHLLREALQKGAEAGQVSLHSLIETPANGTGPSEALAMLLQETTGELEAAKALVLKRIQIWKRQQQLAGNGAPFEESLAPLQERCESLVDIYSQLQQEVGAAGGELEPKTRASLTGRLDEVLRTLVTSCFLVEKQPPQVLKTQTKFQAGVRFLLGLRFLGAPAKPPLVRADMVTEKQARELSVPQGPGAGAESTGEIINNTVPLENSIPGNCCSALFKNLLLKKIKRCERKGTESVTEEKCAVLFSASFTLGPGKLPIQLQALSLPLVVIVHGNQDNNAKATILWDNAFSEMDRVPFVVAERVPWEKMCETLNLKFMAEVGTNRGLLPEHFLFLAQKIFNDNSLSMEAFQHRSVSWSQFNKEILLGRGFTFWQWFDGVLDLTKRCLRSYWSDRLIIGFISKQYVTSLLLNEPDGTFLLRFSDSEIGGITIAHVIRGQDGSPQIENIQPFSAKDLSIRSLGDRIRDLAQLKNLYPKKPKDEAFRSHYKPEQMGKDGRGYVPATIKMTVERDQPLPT
Protocol: STAT6 Fluorescence Polarization (FP) Assay
Assay type: binding
Condition info: STAT6 (W123-T658) 250 nM, probe 5-FAM-Ap[…]-NH2 2 nM, 45-minute incubation; read-out: STAT6 (FP assay IC50 class)
Provide the reported IC50 of each item.

COC(=O)N1CC[C@@H](NC(=O)[C@@H]2CC[C@@H]3CCCC[C@H](NC(=O)c4cc5cc(C(F)P(=O)(O)O)ccc5s4)C(=O)N32)C1 (some centres unmarked): 0.3 to 3 µM

Need IC50 for each of these compounds.
1. COc1cccnc1C1CN(C(=O)[C@@H]2CC[C@@H]3CCC[C@H](NC(=O)c4cc5cc(C(F)(F)P(=O)(O)O)ccc5s4)C(=O)N32)C1
2. O=C(N[C@H]1CCCC[C@H]2CC[C@@H](C(=O)N3Cc4cn(C5CC5)nc4C3)N2C1=O)c1cc2cc(C(F)(F)P(=O)(O)O)ccc2s1
3. N#C[C@H]1[C@H](c2ccccc2)CN(C(=O)[C@@H]2CC[C@@H]3CCCC[C@H](NC(=O)c4cc5cc(C(F)P(=O)(O)O)ccc5s4)C(=O)N32)C12CC2 (relative stereo)
4. CCOc1ccncc1C1CN(C(=O)[C@@H]2CC[C@@H]3CCC[C@H](NC(=O)c4cc5cc(C(F)P(=O)(O)O)ccc5s4)C(=O)N32)C1 (some centres unmarked)

1: 0.3 to 3 µM; 2: 3 to 30 µM; 3: ≤ 0.3 µM; 4: 3 to 30 µM

# batch size: 3; output IC50 per entry
1. O=C(N[C@H]1CCCC[C@H]2CC[C@@H](C(=O)N[C@@H]3CCN(C(=O)OC4CC4)C3)N2C1=O)c1cc2cc(C(F)P(=O)(O)O)ccc2s1 (some centres unmarked)
2. Cc1nnc([C@H]2[C@H](c3ccccc3)CN2C(=O)[C@@H]2CC[C@@H]3CCC[C@H](NC(=O)c4cc5cc(C(F)P(=O)(O)O)ccc5s4)C(=O)N32)o1 (single isomer, unassigned) [Compound 674]
3. CC(c1ccc2sc(C(=O)N[C@H]3CCC[C@H]4CC[C@@H](C(=O)N5CC(c6cccnc6)C5)N4C3=O)cc2c1)P(=O)(O)O (some centres unmarked)

["0.3 to 3 µM", "3 to 30 µM", "3 to 30 µM"]
